measurement_target: Sphingosine 1-phosphate receptor 1 (Homo sapiens)
Sequence (P21453 whole entry): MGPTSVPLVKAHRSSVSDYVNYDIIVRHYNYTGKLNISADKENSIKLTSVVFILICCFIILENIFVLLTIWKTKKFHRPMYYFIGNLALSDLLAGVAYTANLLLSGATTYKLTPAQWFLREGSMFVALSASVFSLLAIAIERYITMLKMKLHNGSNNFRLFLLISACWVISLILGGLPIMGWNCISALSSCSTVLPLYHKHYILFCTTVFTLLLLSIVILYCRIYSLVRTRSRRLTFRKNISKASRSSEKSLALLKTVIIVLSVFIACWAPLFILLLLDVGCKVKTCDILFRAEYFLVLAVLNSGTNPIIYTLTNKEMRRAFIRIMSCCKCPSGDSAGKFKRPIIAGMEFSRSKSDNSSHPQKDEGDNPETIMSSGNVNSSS
protocol_summary: Agonist activity at S1P1 receptor expressed in CHO cells after 60 mins by [35S]-GTPgammaS binding assay
Assay type: functional, cell-based
assay_metric: pEC50
Give only the number. pEC50 is defined as minus log10 of concentration in molar units.

{"smiles_repr": "CCN(c1cc(C(=O)Nc2ccc(O)cc2C)ncn1)C1CCCCC1", "pEC50": 6.39}

With those in mind, consider the next compound.
# compound `CNS(=O)(=O)c1ccc(NC(=O)c2cc(N(CC3CC3)C3CCCCC3)ncn2)c(C)c1` ; its pEC50 = 8.22

###

protocol_summary: Lipophilicity, log P of the compound
Format: physicochemical
setup_conditions: octanol/water
assay_metric: logP
No unit in the answer, please; the number alone is enough.

{"smiles_repr": "CCCN(CC1CC1)c1cc(C(=O)Nc2ccc3[nH]ncc3c2)ncn1", "numeric_result": 4.6}
{"smiles_repr": "Cc1cc(S(N)(=O)=O)ccc1NC(=O)c1cc(NC2CCCCC2)ncn1", "numeric_result": 3.6}
{"smiles_repr": "Cc1cc(S(N)(=O)=O)ccc1NC(=O)c1cc(N(CC2CC2)C2CCCCC2)ncn1", "numeric_result": 5.7}
{"smiles_repr": "Cc1cc2[nH]ncc2cc1NC(=O)c1cc(N(CC2CC2)C2CCCCC2)ncn1", "numeric_result": 6.1}

# molecule `Cc1cc(O)ccc1NC(=O)c1cc(NC2CCCCC2)ncn1` ; its logP = 4.1

# molecule `Cc1cc(O)ccc1NC(=O)c1cc(N(CC2CC2)C2CCCCC2)ncn1` ; its logP = 7.4
